Source of measurements: PubChem BioAssay

I'd be grateful if you could share measured inhibition for these entries.
test_protocol: 384-well plate pilot, post-Golgi transport modulator project, inhibition of yeast transport mutant growth (AID 636)
conditions_used: absorbance 615 nm, about 18 h, hits give high values
Active and inactive are the calls of the source. No stated cut-off is given here; in the data, active means inhibition above about 31%; inactive means the rest.

Which value of inhibition has been reported for Cc1cc(N2C(=O)C(=O)/C(=C(/O)c3ccc(F)cc3)C2c2ccc(F)cc2)no1 (centres undefined) in the records? -5.47% (inactive)

Query: inhibition; subject: CC(=O)OCC(=O)[C@@]1(OC(C)=O)[C@@H](C)C[C@H]2[C@@H]3C[C@H](F)C4=CC(=O)C=C[C@]4(C)[C@@]3(F)[C@@H](O)C[C@@]21C -1.69% (inactive)

What measured inhibition goes with Cc1cc(Cl)c(S(=O)(=O)Nc2ccc3c(c2)OCCO3)cc1OCC(N)=O ? 0.27% (inactive)

Using the record for CCCC1CCC(C(=O)Nn2cnc3ccccc3c2=O)CC1 (centres undefined) , report its inhibition. 1.17% (inactive)
